target: 3CLpro^D155A/C156S (Severe acute respiratory syndrome coronavirus 2, UniProt P0DTD1, C3419S/D3418A); conditions: read-out: IC50, 3CLpro^D155A/C156S activity
READOUT TYPE: IC50

Record O=C([O-])[C@H](O)[C@@H](O)[C@H](O)[C@H](O)CO.O=C([O-])[C@H](O)[C@@H](O)[C@H](O)[C@H](O)CO.[Zn+2] [Zn^2+, zinc gluconate] , field IC50: 1540 nM

Reference source for all entries: paper PMC8886686
